- assayTarget: GPR17 (Homo sapiens)
- protocolDetails: Calcium mobilization functional assay (GPR17 Ca2+ assay)
- Assay type: cell-based
- Design: host or cells: Flp-In T-REx CHO
- setupConditions: CHO hGPR17 cells, inhibition of 50 nM MDL29,951, Calcium 5 dye, FLIPR; read-out: Ca2+ assay pIC50 (converted)
reportedProperty: IC50

O=S(=O)(Nc1ccc(OC(F)(F)F)cc1F)c1c[nH]c2cc(Cl)ccc12 [Compound I-276] : 0.00316 to 0.0316 µM
O=S(=O)(Nc1cccc2nsnc12)c1c[nH]c2cc(Cl)ccc12 [Compound I-109] : < 0.00316 µM
COc1nc(NS(=O)(=O)c2c[nH]c3cc(N)ccc23)c(F)cc1CC#N [Compound I-352] : 0.00316 to 0.0316 µM
COc1cc(Cl)c(F)cc1NS(=O)(=O)c1c[nH]c2c1ccc1ccccc12 [Compound I-175] : > 0.0316 µM
O=S(=O)(Nc1ccc(F)c2nonc12)c1c[nH]c2cc(Cl)ccc12 [Compound I-197] : > 0.0316 µM

Recorded result, N#Cc1ccc(NS(=O)(=O)c2c[nH]c3cc(-c4ccncc4)ccc23)c(F)c1 [Compound I-231] , IC50: > 0.0316 µM

###

- assayTarget: GPR17 (Homo sapiens)
- protocolDetails: Calcium mobilization functional assay (GPR17 Ca2+ assay)
- Assay type: cell-based
- Design: host or cells: Flp-In T-REx CHO
- setupConditions: CHO hGPR17 cells, inhibition of 50 nM MDL29,951, Calcium 5 dye, FLIPR; read-out: Ca2+ assay pIC50 (converted)
reportedProperty: IC50

Cc1ccc2c(S(=O)(=O)Nc3ccc(C#N)cc3)c[nH]c2c1 [Compound I-20] : 3.16 to 31.6 nM
N#Cc1ccc(NS(=O)(=O)c2c[nH]c3nc(Cl)ccc23)cc1 [Compound I-178] : 3.16 to 31.6 nM
COc1nc(NS(=O)(=O)c2c[nH]c3cc(Cl)ccc23)c(F)cc1Cl [Compound I-254] : < 3.16 nM
N#Cc1ccc(NS(=O)(=O)c2c[nH]c3ccc(Br)cc23)cc1 [Compound I-13] : > 31.6 nM
O=[N+]([O-])c1ccc(NS(=O)(=O)c2c[nH]c3cc(Cl)ccc23)cc1 [Compound I-39] : 3.16 to 31.6 nM
COc1cc(NS(=O)(=O)c2c[nH]c3cc(Cl)ccc23)c(F)cc1C#N [Compound I-143] : < 3.16 nM
O=S(=O)(Nc1ccc2nonc2c1)c1c[nH]c2cc(Cl)ccc12 [Compound I-201] : > 31.6 nM
O=S(=O)(Nc1ccc(F)cc1F)c1c[nH]c2ncc(I)cc12 [Compound I-82] : > 31.6 nM

Query compound follows.
Recorded result, N#Cc1ccc(NS(=O)(=O)c2c[nH]c3cc(OCC4CC4)ccc23)c(F)c1 [Compound I-220] , IC50: 3.16 to 31.6 nM

###

- assayTarget: GPR17 (Homo sapiens)
- protocolDetails: cAMP accumulation functional assay (HTRF, Schild analysis)
- Format: cell-based
- Set-up: host or cells: Flp-In T-REx CHO
- setupConditions: CHO hGPR17 cells, Schild analysis vs MDL29,951, 5 μM forskolin, read-out: cAMP assay pA2 (converted)
reportedProperty: Kb

Here is how some compounds turned out for Kb.
O=S(=O)(Nc1cccc2nsnc12)c1c[nH]c2cc(F)ccc12 : 3.16 to 31.6 nM
O=S(=O)(Nc1ccc(F)c2nsnc12)c1c[nH]c2nc(Cl)ccc12 : > 31.6 nM
N#Cc1ccc(NS(=O)(=O)c2c[nH]c3nc(Br)ccc23)c(F)c1 : < 3.16 nM

Recorded result, COc1nc(NS(=O)(=O)c2c[nH]c3c2ccc2cccnc23)c(F)cc1Cl , Kb: < 3.16 nM

Recorded result, N#CCc1ccc(NS(=O)(=O)c2c[nH]c3cc(Cl)ccc23)c(F)c1 , Kb: < 3.16 nM

Recorded result, COc1cc(C#N)c(F)cc1NS(=O)(=O)c1c[nH]c2nc(Cl)ccc12 , Kb: 3.16 to 31.6 nM

Recorded result, O=S(=O)(Nc1cc(F)c(OCC(F)F)cc1F)c1c[nH]c2cc(Cl)ccc12 , Kb: < 3.16 nM

Recorded result, COc1nc(NS(=O)(=O)c2c[nH]c3cc(Cl)ccc23)c(F)cc1Cl , Kb: < 3.16 nM

Recorded result, COc1ccc2c(S(=O)(=O)Nc3ccc(C#N)cc3F)c[nH]c2c1 , Kb: 3.16 to 31.6 nM

###

- assayTarget: GPR17 (Homo sapiens)
- protocolDetails: Calcium mobilization functional assay (GPR17 Ca2+ assay)
- Format: cell-based
- Set-up: host or cells: Flp-In T-REx CHO
- setupConditions: CHO hGPR17 cells, inhibition of 50 nM MDL29,951, Calcium 5 dye, FLIPR; read-out: Ca2+ assay pIC50 (converted)
reportedProperty: IC50

Here is how some compounds turned out for IC50.
O=S(=O)(Nc1cccc2nonc12)c1c[nH]c2cc(Cl)ccc12 : 3.16 to 31.6 nM
O=S(=O)(Nc1ccc(S(F)(F)(F)(F)F)cc1F)c1c[nH]c2cc(Cl)ccc12 : 3.16 to 31.6 nM
CCO/C=C/c1cc(F)c(NS(=O)(=O)c2c[nH]c3cc(Cl)ccc23)nc1F : 3.16 to 31.6 nM
COc1cc(CC#N)c(F)nc1NS(=O)(=O)c1c[nH]c2cc(Cl)ccc12 : < 3.16 nM

Recorded result, O=S(=O)(Nc1cccc2c1OC(F)(F)O2)c1c[nH]c2ncc(I)cc12 , IC50: > 31.6 nM

Recorded result, Cc1c(Br)ccc2c(S(=O)(=O)Nc3ncc(Cl)cc3F)c[nH]c12 , IC50: 3.16 to 31.6 nM

Recorded result, N#Cc1ccc(NS(=O)(=O)c2c[nH]c3cc(-c4cccs4)ccc23)c(F)c1 , IC50: 3.16 to 31.6 nM

Recorded result, O=S(=O)(Nc1ccc(F)cc1F)c1c[nH]c2nc(Br)ccc12 , IC50: > 31.6 nM

Recorded result, O=C1OCc2ccc(NS(=O)(=O)c3c[nH]c4nc(Br)ccc34)cc21 , IC50: > 31.6 nM

Recorded result, O=S(=O)(Nc1ccc2nsnc2c1)c1c[nH]c2c3c(ccc12)CCC3 , IC50: > 31.6 nM

Recorded result, COc1ccc2c(S(=O)(=O)Nc3cccc4c3OC(F)(F)O4)c[nH]c2c1 , IC50: > 31.6 nM

Recorded result, C#Cc1ccc(NS(=O)(=O)c2c[nH]c3cc(OC)ccc23)c(F)c1 , IC50: 3.16 to 31.6 nM

Recorded result, O=S(=O)(Nc1cccc2c1OCO2)c1c[nH]c2cc(F)ccc12 , IC50: > 31.6 nM

Recorded result, O=S(=O)(Nc1cc(F)c(OC(F)F)cc1F)c1c[nH]c2nc(C(F)F)ccc12 , IC50: 3.16 to 31.6 nM

Recorded result, N#Cc1ccc(NS(=O)(=O)c2c[nH]c3ncc(I)cc23)cc1 , IC50: 3.16 to 31.6 nM

###

- assayTarget: GPR17 (Homo sapiens, UniProt Q13304)
- Sequence (Q13304 whole entry): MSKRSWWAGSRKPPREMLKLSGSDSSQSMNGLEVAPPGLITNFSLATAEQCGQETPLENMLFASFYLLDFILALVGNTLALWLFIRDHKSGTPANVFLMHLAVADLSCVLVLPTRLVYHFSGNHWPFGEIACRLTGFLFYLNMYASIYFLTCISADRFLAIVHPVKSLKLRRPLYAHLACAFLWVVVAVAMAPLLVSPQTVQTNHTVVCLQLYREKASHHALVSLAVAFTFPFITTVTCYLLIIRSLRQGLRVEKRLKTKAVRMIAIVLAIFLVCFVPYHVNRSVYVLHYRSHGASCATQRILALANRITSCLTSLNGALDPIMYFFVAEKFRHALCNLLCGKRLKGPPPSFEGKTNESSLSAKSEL
- protocolDetails: Calcium mobilization functional assay (GPR17 Ca2+ assay)
- Assay type: cell-based
- Design: host or cells: Flp-In T-REx CHO
- setupConditions: CHO hGPR17 cells, inhibition of 50 nM MDL29,951, Calcium 5 dye, FLIPR; read-out: Ca2+ assay pIC50 (converted)
Parameter: IC50. Scope: all listed entries.

Here is how some molecules turned out for IC50.
COCCCc1cc(F)c(NS(=O)(=O)c2c[nH]c3cc(Cl)ccc23)nc1F : < 3.16 nM
C#Cc1ccc(NS(=O)(=O)c2c[nH]c3nc(Br)ccc23)cc1 : 3.16 to 31.6 nM
O=S(=O)(Nc1cc(F)cc(F)c1Cl)c1c[nH]c2cc(Cl)ccc12 : 3.16 to 31.6 nM
O=S(=O)(Nc1cc2nsnc2cc1F)c1c[nH]c2cc(F)ccc12 : 3.16 to 31.6 nM

Recorded result, O=S(=O)(Nc1cccc2nsnc12)c1c[nH]c2c1ccc1ccccc12 , IC50: 3.16 to 31.6 nM

###

- assayTarget: GPR17 (Homo sapiens, UniProt Q13304)
- protocolDetails: Calcium mobilization functional assay (GPR17 Ca2+ assay)
- Format: cell-based
- Set-up: host or cells: Flp-In T-REx CHO
- setupConditions: CHO hGPR17 cells, inhibition of 50 nM MDL29,951, Calcium 5 dye, FLIPR; read-out: Ca2+ assay pIC50 (converted)
Parameter: IC50. Scope: all listed entries.

O=S(=O)(Nc1ccc2nsnc2c1)c1c[nH]c2cc(Cl)ccc12 : 3.16 to 31.6 nM
O=S(=O)(Nc1ccc2nsnc2c1)c1c[nH]c2cc(F)ccc12 : > 31.6 nM
COc1nc(NS(=O)(=O)c2c[nH]c3cc(Cl)c(F)cc23)c(F)cc1Cl : < 3.16 nM

Query molecule follows.
Recorded result, N#Cc1ccc(NS(=O)(=O)c2c[nH]c3c(Br)c(Cl)ccc23)c(F)c1 , IC50: < 3.16 nM
